- study.system: T1, human SIRPγ isoform 1 (human, UniProt Q9P1W8 29-147)
- T1 construct: also called Gamma; Human SIRPg
- T1 sequence (Q9P1W8 29-147 limits assumed): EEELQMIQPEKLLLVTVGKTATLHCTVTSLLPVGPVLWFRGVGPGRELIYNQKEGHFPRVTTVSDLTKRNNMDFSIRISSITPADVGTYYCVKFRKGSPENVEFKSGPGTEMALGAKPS
- procedure.text: SPR, antibody on GLC chip
Below, each of the binders is paired with its reported Kd value.
Report the value in nM with no unit label.

Would you please look over these solved cases?
binder: antibody 135 (antibody, V domains shown, also called AB135; S135) VH: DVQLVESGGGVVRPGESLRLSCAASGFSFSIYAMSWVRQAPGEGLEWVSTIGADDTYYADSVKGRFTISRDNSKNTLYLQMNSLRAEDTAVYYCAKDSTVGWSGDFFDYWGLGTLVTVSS VL: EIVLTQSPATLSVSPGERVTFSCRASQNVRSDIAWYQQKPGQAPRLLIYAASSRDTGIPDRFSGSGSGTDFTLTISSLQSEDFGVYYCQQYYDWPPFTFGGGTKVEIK
endpoint.unit: nM
numeric.value: 0.539

binder: antibody 136 variant, light chain Mut_S22T / heavy chain Mut (antibody, V domains shown) VH: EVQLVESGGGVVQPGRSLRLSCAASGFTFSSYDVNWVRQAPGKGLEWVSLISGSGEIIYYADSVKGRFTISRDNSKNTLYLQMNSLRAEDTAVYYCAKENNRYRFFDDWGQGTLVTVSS VL: EIVLTQSPGTLSLSPGERATLTCRASQSVYTYLAWYQQKPGQAPRLLIYGASSRATGIPDRFSGSGSGTEFTLTISSLQSEDFAVYYCQQYYDRPPLTFGGGTKVEIK
endpoint.unit: nM
numeric.value: 61.7

Field request: Kd | item: antibody 136 variant, light chain Mut_Q38E / heavy chain Mut (antibody, V domains shown) VH: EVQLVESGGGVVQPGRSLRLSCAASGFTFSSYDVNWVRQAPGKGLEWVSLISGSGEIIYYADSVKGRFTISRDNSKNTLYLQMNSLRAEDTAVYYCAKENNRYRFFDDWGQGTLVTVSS VL: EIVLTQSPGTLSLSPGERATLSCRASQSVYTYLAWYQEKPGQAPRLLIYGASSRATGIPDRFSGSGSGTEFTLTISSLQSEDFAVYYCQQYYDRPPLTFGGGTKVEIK
19.3
